biological target: 5-hydroxytryptamine receptor 2A (Rattus norvegicus)
Sequence (P14842 whole entry): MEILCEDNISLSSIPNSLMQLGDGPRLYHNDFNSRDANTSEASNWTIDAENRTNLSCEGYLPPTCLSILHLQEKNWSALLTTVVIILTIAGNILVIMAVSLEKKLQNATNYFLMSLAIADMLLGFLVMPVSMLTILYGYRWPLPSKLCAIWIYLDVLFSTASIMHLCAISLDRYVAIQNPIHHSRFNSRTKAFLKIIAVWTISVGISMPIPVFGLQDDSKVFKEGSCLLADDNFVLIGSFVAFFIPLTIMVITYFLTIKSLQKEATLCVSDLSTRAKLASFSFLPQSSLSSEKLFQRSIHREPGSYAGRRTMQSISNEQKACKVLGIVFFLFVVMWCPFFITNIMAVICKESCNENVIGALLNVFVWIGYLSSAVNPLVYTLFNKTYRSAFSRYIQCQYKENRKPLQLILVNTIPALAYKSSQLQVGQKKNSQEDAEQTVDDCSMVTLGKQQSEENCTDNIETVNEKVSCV
pKi: −log10 of the molar value.
Threshold rule: pKi greater than or equal to 8 is satisfied; below that, not satisfied.

- compound: "COc1ccccc1N1CCN(CCCCN2C(=O)c3ccccc3C2=O)CC1"
  study-system: "5-hydroxytryptamine receptor 2A (Rattus norvegicus)"
  cat: "not satisfied"
- compound: "CC(C)C[C@H]1C(=O)N2CCC[C@H]2[C@]2(O)O[C@](NC(=O)[C@@H]3C=C4c5cccc6[nH]c(Br)c(c56)C[C@H]4N(C)C3)(C(C)C)C(=O)N12"
  study-system: "5-hydroxytryptamine receptor 2A (Rattus norvegicus)"
  cat: "not satisfied"
- compound: "CN1C2CCC1CC(OC(=O)c1cc(Cl)cc(Cl)c1)C2 (stereo not given)"
  study-system: "5-hydroxytryptamine receptor 2A (Rattus norvegicus)"
  cat: "not satisfied"
- compound: "CC(C)(C)[C@]1(O)CCN2C[C@H]3c4ccccc4CCc4cccc(c43)[C@@H]2C1"
  study-system: "5-hydroxytryptamine receptor 2A (Rattus norvegicus)"
  cat: "satisfied"

###

Target: 5-hydroxytryptamine receptor 2C (Rattus norvegicus, UniProt P08909)
Sequence (P08909 whole entry): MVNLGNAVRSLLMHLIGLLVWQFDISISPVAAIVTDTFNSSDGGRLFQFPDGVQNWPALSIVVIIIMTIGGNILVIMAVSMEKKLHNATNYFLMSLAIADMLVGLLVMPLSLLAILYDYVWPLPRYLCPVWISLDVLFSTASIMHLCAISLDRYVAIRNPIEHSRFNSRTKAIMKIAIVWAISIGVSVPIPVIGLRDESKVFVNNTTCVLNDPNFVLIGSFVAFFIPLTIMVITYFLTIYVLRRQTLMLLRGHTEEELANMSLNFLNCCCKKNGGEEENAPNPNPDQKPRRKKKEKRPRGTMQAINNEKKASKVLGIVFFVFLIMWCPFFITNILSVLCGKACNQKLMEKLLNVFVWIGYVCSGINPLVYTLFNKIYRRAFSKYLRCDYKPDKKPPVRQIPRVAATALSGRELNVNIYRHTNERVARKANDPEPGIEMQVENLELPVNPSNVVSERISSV
pKi: −log10 of the molar value.
Kind request: treat 6 as inclusive, so pKi at 6 or higher is yes, anything lower is no.

- molecule: "CN(C)CCCN1c2ccccc2CCc2ccccc21"
  cat: "yes"
- molecule: "c1ccc2nc(N3CCNCC3)ccc2c1"
  cat: "yes"
- molecule: "COC(=O)[C@@H]1[C@H]2C[C@H]3c4[nH]c5ccccc5c4CCN3C[C@@H]2CC[C@@H]1O"
  cat: "no"
- molecule: "CCc1cc(Cl)c(OC)c(C(=O)NC[C@@H]2CCCN2CC)c1O"
  cat: "no"
- molecule: "COC(=O)[C@H]1[C@@H](OC(=O)c2ccccc2)C[C@@H]2CC[C@H]1N2C [Cocaine (-)]"
  cat: "no"
- molecule: "CN1C2CCC1CC(OC(=O)c1c[nH]c3ccccc13)C2 (stereo unspecified)"
  cat: "no"
- molecule: "COC(=O)[C@H]1[C@H]2C[C@@H]3c4[nH]c5cc(OC)ccc5c4CCN3C[C@H]2C[C@@H](OC(=O)c2cc(OC)c(OC)c(OC)c2)[C@@H]1OC"
  cat: "no"
- molecule: "CN1CCc2cc(Cl)c(O)cc2[C@@H](c2ccccc2)C1 [SCH 23390,R(+)]"
  cat: "yes"
- molecule: "c1ccc2c(c1)OCC(C1=NCCN1)O2 (stereo unspecified)"
  cat: "no"
- molecule: "NC(=O)N1c2ccccc2C=Cc2ccccc21 [5H-dibenzo[b,f]azepine-5-carboxamide]"
  cat: "no"
- molecule: "CC[C@@H]1CC2C[C@@H]3c4[nH]c5ccc(OC)cc5c4CCN(C2)C13"
  cat: "no"
- molecule: "NCC(O)c1ccc(O)c(O)c1 (stereo not drawn) [Noradrenaline,(+)]"
  cat: "no"
- molecule: "CCCN1CCC[C@@H]2Cc3n[nH]cc3C[C@H]21"
  cat: "no"
- molecule: "C=CCN1CCc2c(cc(O)c(O)c2Cl)C(c2ccccc2)C1 (racemic)"
  cat: "no"
- molecule: "C#CCN(C)[C@H](C)Cc1ccccc1"
  cat: "no"
- molecule: "NCCc1ccc(O)c(O)c1"
  cat: "no"
- molecule: "NC(Cc1ccc(O)c(O)c1)C(=O)O (stereo unspecified)"
  cat: "no"
- molecule: "O=c1[nH]c2ccccc2n1C1CCN(CCCC(c2ccc(F)cc2)c2ccc(F)cc2)CC1"
  cat: "no"
- molecule: "OCCN1CCN(CC/C=C2/c3ccccc3Sc3ccc(C(F)(F)F)cc32)CC1"
  cat: "yes"
- molecule: "CCCN1CCCC(c2cccc(O)c2)C1 (stereo unspecified)"
  cat: "no"
- molecule: "CN(C)C/C=C(/c1ccc(Br)cc1)c1cccnc1"
  cat: "yes"
- molecule: "CN[C@@H](C)Cc1ccccc1 [METHAMPHETAMINE (+)]"
  cat: "no"
- molecule: "Oc1cc2c(cc1O)[C@@H](c1ccccc1)CNCC2"
  cat: "no"
- molecule: "CN1C2CCC1CC(OC(=O)c1cc(Cl)cc(Cl)c1)C2 (stereo unspecified)"
  cat: "no"
- molecule: "Cc1ccc(N(CC2=NCCN2)c2cccc(O)c2)cc1"
  cat: "yes"
- molecule: "CCN(CC)CCNC(=O)c1cc(Cl)c(N)cc1OC"
  cat: "no"
- molecule: "O=C(c1ccc(F)cc1)C1CCN(CCn2c(=O)[nH]c3ccccc3c2=O)CC1"
  cat: "yes"
- molecule: "CN1CC(C(=O)N[C@]2(C)O[C@@]3(O)C4CCCN4C(=O)[C@H](Cc4ccccc4)N3C2=O)CC2c3cccc4[nH]cc(c34)CC21 (stereo partly specified)"
  cat: "yes"
- molecule: "COC(=O)[C@@H](c1ccccc1)[C@@H]1CCCCN1"
  cat: "no"
- molecule: "N[C@@H]1C[C@H]1c1ccccc1 [Tranylcypromine,(+)]"
  cat: "no"
- molecule: "CC(C)C[C@H]1C(=O)N2CCC[C@H]2[C@]2(O)O[C@](NC(=O)[C@@H]3C=C4c5cccc6[nH]c(Br)c(c56)C[C@H]4N(C)C3)(C(C)C)C(=O)N12"
  cat: "no"
- molecule: "COc1ccccc1N1CCN(CCCCN2C(=O)c3ccccc3C2=O)CC1"
  cat: "no"
- molecule: "C=CCN1CCc2cc(O)c(O)cc2C(c2ccccc2)C1 (stereo unspecified)"
  cat: "no"
- molecule: "Fc1ccc(C(OCCN2CCN(CCCc3ccccc3)CC2)c2ccc(F)cc2)cc1"
  cat: "no"
- molecule: "CNc1cc(OC)c(C(=O)N[C@H]2CCN(Cc3ccccc3)[C@H]2C)cc1Cl [Nemonapride]"
  cat: "no"
- molecule: "CN1CCN(c2nc3cc(C(F)(F)F)ccc3n3cccc23)CC1"
  cat: "no"

###

molecular target: Mu-type opioid receptor (Cavia porcellus, UniProt P97266)
Sequence (P97266 whole entry): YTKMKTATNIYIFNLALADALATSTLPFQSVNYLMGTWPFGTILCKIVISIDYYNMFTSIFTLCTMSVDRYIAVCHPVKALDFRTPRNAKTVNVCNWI
pKi: −log10 of the molar value.
value-kind: pKi

- molecule: "C[C@@H](O)[C@H](NC(=O)[C@H]1NC(=O)[C@H]([C@@H](C)O)NC(=O)[C@H](CCCN=C(N)N)NC(=O)[C@@H](Cc2c[nH]c3ccccc23)NC(=O)[C@H](Cc2ccc(O)cc2)NC(=O)[C@@H](NC(=O)[C@H](N)Cc2ccccc2)CSSC1(C)C)C(N)=O"
  recorded-number: 9.30
- molecule: "C=C1CCC2(O)C3Cc4ccc(O)c5c4C2(CCN3CC2CC2)C1O5 (centres undefined)"
  recorded-number: 9.52
- molecule: "CC(C)C[C@@H](NC(=O)[C@H](Cc1ccccc1)NC(=O)CNC(=O)[C@@H](C)NC(=O)[C@@H](N)Cc1ccc(O)cc1)C(=O)O [[D-Ala2-D-Leu5]enkephalin]"
  recorded-number: 8.49
- molecule: "C=CCN1CC[C@]23c4c5ccc(O)c4O[C@H]2[C@@H](O)C=CC3[C@H]1C5 (some centres undefined)"
  recorded-number: 8.72
- molecule: "Oc1ccc2c3c1OC1C(O)C=CC4C(C2)NCCC341 (centres undefined)"
  recorded-number: 8.41
- molecule: "COc1ccc2c3c1OC1C(O)C=CC4C(C2)N(C)CCC341 (centres undefined)"
  recorded-number: 6.82
- molecule: "CC[C@@]12CCN(CC3CC3)C(C(=O)c3ccc(O)cc31)[C@@H]2C"
  recorded-number: 9.40
- molecule: "C=CCN1CCC23c4c5ccc(O)c4O[C@@H]2C(=NNC(=O)c2ccccc2)CCC3(O)C1C5 (some centres undefined)"
  recorded-number: 9.70
- molecule: "CN1CC[C@]23c4c5ccc(O)c4O[C@H]2[C@@H](O)CCC3[C@H]1C5 (some centres undefined) [DIHYDROMORPHINE]"
  recorded-number: 9.10
- molecule: "Oc1ccc2c3c1O[C@H]1c4oc5ccccc5c4C[C@@]4(O)[C@@H](C2)N(CC2CC2)CC[C@]314"
  recorded-number: 8.19
- molecule: "CCC12CCN(CC3(O)CC3)C(Cc3ccc(O)cc31)C2(C)C (centres undefined)"
  recorded-number: 10.00
- molecule: "CC(C)C[C@H](NC(=O)[C@H](Cc1ccccc1)NC(=O)CNC(=O)CNC(=O)[C@@H](N)Cc1ccc(O)cc1)C(=O)N[C@@H](CCCN=C(N)N)C(=O)N[C@@H](CCCN=C(N)N)C(=O)N[C@@H](CCC(N)=O)C(=O)N[C@@H](Cc1ccccc1)C(=O)N[C@@H](CCCCN)C(=O)N[C@H](C(=O)N[C@H](C(=O)N[C@H](C(=O)O)[C@@H](C)O)C(C)C)C(C)C"
  recorded-number: 8.26
- molecule: "Oc1ccc2c3c1OC1c4[nH]c5ccccc5c4CC4(O)[C@H](C2)N(CC2CC2)CCC314 (some centres undefined)"
  recorded-number: 9.70
- molecule: "CN1CCC2(C)c3cc(O)ccc3CC1C2(C)CCC(=O)CCC1CCCC1 (centres undefined)"
  recorded-number: 10.00

meta.source: BindingDB's records for PubMed 9686407
